// reported IC50 per item
Target: recombinant PI3 kinase γ (Homo sapiens (Human), UniProt P48736)
Sequence (P48736 whole entry): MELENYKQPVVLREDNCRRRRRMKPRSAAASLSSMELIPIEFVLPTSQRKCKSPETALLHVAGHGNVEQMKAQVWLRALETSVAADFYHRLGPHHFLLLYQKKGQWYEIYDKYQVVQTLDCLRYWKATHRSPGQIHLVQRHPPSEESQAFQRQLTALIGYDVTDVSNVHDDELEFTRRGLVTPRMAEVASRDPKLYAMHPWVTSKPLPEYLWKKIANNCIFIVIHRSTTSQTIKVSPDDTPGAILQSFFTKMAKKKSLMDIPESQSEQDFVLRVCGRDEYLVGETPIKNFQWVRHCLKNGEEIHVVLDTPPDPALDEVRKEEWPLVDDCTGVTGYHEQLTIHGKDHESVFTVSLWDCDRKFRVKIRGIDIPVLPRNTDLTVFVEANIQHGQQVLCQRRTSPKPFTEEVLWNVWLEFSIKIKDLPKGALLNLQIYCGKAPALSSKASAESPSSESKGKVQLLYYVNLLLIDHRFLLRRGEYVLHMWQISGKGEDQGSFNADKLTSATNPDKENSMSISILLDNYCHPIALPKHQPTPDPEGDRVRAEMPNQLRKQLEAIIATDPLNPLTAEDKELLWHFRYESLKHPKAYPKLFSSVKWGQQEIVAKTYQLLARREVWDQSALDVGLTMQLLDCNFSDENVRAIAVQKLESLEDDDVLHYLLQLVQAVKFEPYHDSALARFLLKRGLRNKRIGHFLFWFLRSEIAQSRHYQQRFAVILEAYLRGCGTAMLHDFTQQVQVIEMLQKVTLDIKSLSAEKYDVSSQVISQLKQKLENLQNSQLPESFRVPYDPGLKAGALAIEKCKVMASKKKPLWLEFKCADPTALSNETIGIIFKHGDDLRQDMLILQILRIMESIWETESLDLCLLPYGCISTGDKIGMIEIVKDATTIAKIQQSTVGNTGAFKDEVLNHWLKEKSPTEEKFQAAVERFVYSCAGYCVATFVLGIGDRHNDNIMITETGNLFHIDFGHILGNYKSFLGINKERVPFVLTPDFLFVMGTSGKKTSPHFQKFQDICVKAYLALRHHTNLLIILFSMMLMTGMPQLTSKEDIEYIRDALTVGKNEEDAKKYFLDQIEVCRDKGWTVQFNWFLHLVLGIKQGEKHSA
Test: Enzyme Inhibition Assay (HTRF PI3K enzyme assay, TR-FRET)
Assay type: biochemical
Details: activity range; read-out: PI3 Kinase Inhibition IC50 values at stated Isozyme γ

The examples below pair each entry with its known result.
>  <chemical-structure>
C#Cc1cccc2nc(Cn3nc(-c4cccc(O)c4)c4c(N)ncnc43)n(Cc3ccccc3F)c(=O)c12

>  <IC50>
50 to 1000 nM

$$$$
>  <chemical-structure>
Nc1ncnc2c1c(-c1ccc(O)cc1)nn2Cc1nc2cccc(C#CCCCC(=O)N3CCOCC3)c2c(=O)n1Cc1cc2ccccc2s1

>  <IC50>
< 50 nM

$$$$
>  <chemical-structure>
CCN(CC)C(=O)CCCC#Cc1cccc2nc(Cn3nc(-c4ccc(O)cc4)c4c(N)ncnc43)n(Cc3ccccc3Cl)c(=O)c12

>  <IC50>
< 50 nM

$$$$
>  <chemical-structure>
CN1CCCN(C(=O)CCCC#Cc2cccc3nc(Cn4nc(-c5ccc(O)cc5)c5c(N)ncnc54)n(Cc4ccccc4Cl)c(=O)c23)CC1

>  <IC50>
< 50 nM

$$$$
>  <chemical-structure>
Nc1ncnc2c1c(-c1cccc(O)c1)nn2Cc1nc2cccc(C#CCCCCC(=O)N3CCOCC3)c2c(=O)n1Cc1ccccc1Cl

>  <IC50>
< 50 nM

$$$$

Inquiry: Under recombinant PI3 kinase γ (Homo sapiens (Human), UniProt P48736): IC50 value of C#Cc1cccc2nc(Cn3nc(-c4cccc(O)c4)c4c(N)ncnc43)n(Cc3cccc(OC)c3)c(=O)c12 ?
Reply text: 50 to 1000 nM

Inquiry: Under recombinant PI3 kinase γ (Homo sapiens (Human), UniProt P48736): IC50 value of Nc1ncnc2c1c(-c1cccc(O)c1)nn2Cc1nc2cccc(C#CCCCC(=O)N3CCOCC3)c2c(=O)n1Cc1ccccc1Cl ?
Reply text: < 50 nM

Inquiry: Under recombinant PI3 kinase γ (Homo sapiens (Human), UniProt P48736): IC50 value of C#Cc1cccc2nc(Cn3nc(-c4cccc(O)c4)c4c(N)ncnc43)n(Cc3ccccc3Cl)c(=O)c12 ?
Reply text: 50 to 1000 nM

Inquiry: Under recombinant PI3 kinase γ (Homo sapiens (Human), UniProt P48736): IC50 value of C#Cc1cccc2nc(Cn3nc(-c4cccc(O)c4)c4c(N)ncnc43)n(Cc3cccc(C#N)c3)c(=O)c12 ?
Reply text: 50 to 1000 nM

Inquiry: Under recombinant PI3 kinase γ (Homo sapiens (Human), UniProt P48736): IC50 value of C#Cc1cccc2nc(Cn3nc(-c4ccc(O)cc4)c4c(N)ncnc43)n(Cc3cccc(OC)c3)c(=O)c12 ?
Reply text: 50 to 1000 nM

Inquiry: Under recombinant PI3 kinase γ (Homo sapiens (Human), UniProt P48736): IC50 value of COc1cc(-c2nn(Cc3nc4cccc(C#CCCCC(=O)N5CCOCC5)c4c(=O)n3Cc3ccccc3Cl)c3ncnc(N)c23)ccc1O ?
Reply text: < 50 nM
